Data provenance: PubChem BioAssay AID651677

Target: Perilipin-5 (Homo sapiens) + 1-acylglycerol-3-phosphate O-acyltransferase ABHD5 (Homo sapiens) (UniProt Q00G26+Q8WTS1)
Sequence (Q00G26 whole entry, looked up): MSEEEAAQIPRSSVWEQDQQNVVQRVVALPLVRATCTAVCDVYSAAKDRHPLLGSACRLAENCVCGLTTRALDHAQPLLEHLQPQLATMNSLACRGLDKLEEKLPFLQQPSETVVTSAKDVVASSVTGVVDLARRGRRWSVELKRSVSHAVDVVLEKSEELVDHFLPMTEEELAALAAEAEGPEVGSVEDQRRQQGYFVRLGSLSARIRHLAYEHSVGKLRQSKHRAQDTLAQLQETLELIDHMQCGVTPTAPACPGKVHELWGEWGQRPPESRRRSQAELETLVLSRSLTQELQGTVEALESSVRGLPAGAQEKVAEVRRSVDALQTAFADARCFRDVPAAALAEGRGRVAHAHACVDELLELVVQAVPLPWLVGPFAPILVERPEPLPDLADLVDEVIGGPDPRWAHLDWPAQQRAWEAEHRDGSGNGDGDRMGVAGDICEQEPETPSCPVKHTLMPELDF
Sequence (Q8WTS1 whole entry, looked up): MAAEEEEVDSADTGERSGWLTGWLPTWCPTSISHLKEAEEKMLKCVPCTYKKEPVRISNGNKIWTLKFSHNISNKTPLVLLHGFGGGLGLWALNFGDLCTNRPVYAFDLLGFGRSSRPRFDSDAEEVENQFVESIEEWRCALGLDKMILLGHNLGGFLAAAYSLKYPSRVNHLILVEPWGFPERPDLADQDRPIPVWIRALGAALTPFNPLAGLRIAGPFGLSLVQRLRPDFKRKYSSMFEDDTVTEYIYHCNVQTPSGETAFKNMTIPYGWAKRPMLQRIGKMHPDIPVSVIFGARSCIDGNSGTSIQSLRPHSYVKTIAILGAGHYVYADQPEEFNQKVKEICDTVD
Test: ABHD5-PLIN5 interaction inhibitors, dose response, biochemical, luminescence (AID 651677)
measure: pIC50
Worth noting: pIC50 values are minus log10 of concentrations stated in mol/L.

Data request: Field request: pIC50 | item: CC1=CC(C)(C)Nc2ccc(OC(=O)CN3C(=O)C4CCCCC4C3=O)cc21 (stereo not given)
Data returned: 5.60

Data request: Another compound to look at: CCSc1nnc(NC(=O)c2nc(S(=O)(=O)Cc3ccc(F)cc3)ncc2Cl)s1
Data returned: 5.63

Data request: Another compound to look at: CC1=CC(C)(C)Nc2ccc(OC(=O)c3cccnc3)cc21
Data returned: 5.65

Data request: Another compound to look at: CCC(C(=O)OCCN(CC)CC)c1ccccc1 (stereo not given)
Data returned: 5.59

Data request: Another compound to look at: CCN(CC)CCN(CC(=O)Nc1c(C)cc(C)cc1C)C(=O)c1ccccc1
Data returned: 5.01

Data request: Another compound to look at: CSc1nnc(NC(=O)c2nc(S(=O)(=O)Cc3ccccc3)ncc2Cl)s1
Data returned: 5.42

Data request: Another compound to look at: CCN(CC)CCC(C)OC(c1ccccc1)c1ccccc1 (stereo not given)
Data returned: 5.47

Data request: Another compound to look at: COc1ccc(C)c2sc(N(CCN(C)C)C(=O)/C=C/c3cccs3)nc12
Data returned: 5.00

Data request: Another compound to look at: Cc1cccc(C)c1NC(=O)C(c1ccccc1F)n1c(=O)c(-c2ccco2)nc2ccccc21 (stereo not given)
Data returned: 5.56

Data request: Another compound to look at: CCCCCNC(=O)C(c1cc2ccccc2o1)n1c(=O)c(-c2ccco2)nc2ccccc21 (stereo not given)
Data returned: 5.94

----------
Hi there, I'd appreciate the recorded pIC50 for every entry that follows.
Target: Perilipin-5 (Homo sapiens) + 1-acylglycerol-3-phosphate O-acyltransferase ABHD5 (Homo sapiens) (UniProt Q00G26+Q8WTS1)
Assay: ABHD5-PLIN5 interaction inhibitors, dose response, biochemical, luminescence (AID 651677)
Worth noting: pIC50 values are minus log10 of concentrations stated in mol/L.

Data request: Field request: pIC50 | item: CC(C)c1nnc(NC(=O)c2nc(S(=O)(=O)Cc3ccc(F)cc3)ncc2Cl)s1
Data returned: 5.71

Data request: Another compound to look at: C=C1C(=O)O[C@H]2C[C@H]1[C@@H](OC(C)=O)C/C(C)=C/CC/C(C)=C\CC[C@]2(C)O
Data returned: 5.72

Data request: Another compound to look at: CCc1nnc(NC(=O)c2nc(S(=O)(=O)Cc3ccccc3)ncc2Cl)s1
Data returned: 5.38

Data request: Another compound to look at: Cc1cccc(C)c1NC(=O)C(c1ccc(-c2ccccc2)cc1)n1c(=O)c(-c2ccco2)nc2ccccc21 (centres undefined)
Data returned: 5.88

Data request: Another compound to look at: O=C1NC(=O)N(c2ccccc2F)C(=O)/C1=C/c1ccc(Oc2ccc([N+](=O)[O-])cn2)cc1
Data returned: 5.83

Data request: Another compound to look at: O=C1NC(=O)N(Cc2ccc(F)cc2)C(=O)/C1=C\C=C\c1ccco1
Data returned: 5.87

Data request: Another compound to look at: O=C(/C=C/c1ccccc1)CC(O)(c1ccccc1)C(F)(F)C(F)F (centres undefined)
Data returned: 5.94

Data request: Another compound to look at: C#CCN(C[C@@H]1[C@@H](OC(=O)NCC2CCCCC2)[C@@H](OC(=O)NCC2CCCCC2)Cn2c(=O)ccc(=O)n21)S(=O)(=O)c1ccc(C)cc1
Data returned: 5.44

Data request: Another compound to look at: CCCCCNC(=O)C(C1CC1)n1c(=O)c(-c2ccco2)nc2ccccc21 (centres undefined)
Data returned: 5.01

----------
Molecular target: Perilipin-5 (Homo sapiens) + 1-acylglycerol-3-phosphate O-acyltransferase ABHD5 (Homo sapiens) (UniProt Q00G26+Q8WTS1)
Assay: ABHD5-PLIN5 interaction inhibitors, dose response, biochemical, luminescence (AID 651677)
Active and inactive are the calls of the source. The rule behind the calls is not given here.
Parameter call: string, one of true for active, false for inactive

Data request: How did this test come out for O=C(NCc1ccccc1)C(c1ccccc1)n1c(=O)c(-c2ccco2)nc2ccccc21 (stereo not given) ?
Data returned: true

Data request: Another compound to look at: Cc1cc(C)c(NC(=O)C[N+](C)(C)CC(O)COc2cccc3ccccc23)c(C)c1 (stereo not given)
Data returned: true

Data request: Another compound to look at: CN1[C@@H]2CC[C@H]1CC(OC1c3ccccc3CCc3ccccc31)C2 (stereo not given in full)
Data returned: true

Data request: Another compound to look at: CC1CN(Cc2c(O)ccc3c2oc(=O)c2ccccc23)CC(C)O1 (stereo not given)
Data returned: true

Data request: Another compound to look at: COc1ccc(OCc2cn(CC(=O)c3ccc(O)cc3)nn2)cc1
Data returned: true

Data request: Another compound to look at: CN(C)CCCN(C(=O)CCc1ccccc1)c1nc2ccc(Br)cc2s1
Data returned: true

Data request: Another compound to look at: NC(=O)C(C(=O)/C=C/c1ccc(Cl)cc1)=C1SCCS1
Data returned: false

Data request: Another compound to look at: CC(C)(C)NC(=O)C(c1ccncc1)n1c(=O)c(-c2ccco2)nc2ccccc21 (stereo not given)
Data returned: true

Data request: Another compound to look at: CC(C)(C)NC(=O)C(c1ccc(-c2ccccc2)cc1)n1c(=O)c(-c2ccco2)nc2ccccc21 (stereo not given)
Data returned: true

Data request: Another compound to look at: CCSc1ccc2c(c1)N(CCCN1CCN(C)CC1)c1ccccc1S2
Data returned: true

----------
Biological target: Perilipin-5 (Homo sapiens) + 1-acylglycerol-3-phosphate O-acyltransferase ABHD5 (Homo sapiens) (UniProt Q00G26+Q8WTS1)
Assay: ABHD5-PLIN5 interaction inhibitors, dose response, biochemical, luminescence (AID 651677)
Activity calls are given as the source filed them. How the calls were made is not given here.
Parameter call: string, one of T = active, F = inactive

Data request: How did this test come out for CC(C)c1ccc(N2C=Nc3ccc(C(C)C)cc3C2)cc1 ?
Data returned: F

Data request: Another compound to look at: CN(C)CCOC1(Cc2ccc(F)cc2)CCC(C(C)(C)C)CC1 (centres undefined)
Data returned: T

Data request: Another compound to look at: CCCCCNC(=O)C(c1ccc(OC)cc1)n1c(=O)c(-c2ccco2)nc2ccccc21 (centres undefined)
Data returned: T

Data request: Another compound to look at: COC(=O)c1cc(=O)n(Cc2ccco2)c(=Nc2ccc(F)cc2)s1
Data returned: T

Data request: Another compound to look at: Cc1ccc(/C=C/C(=O)c2cc(Br)ccc2OC(=O)c2ccco2)cc1
Data returned: T

Data request: Another compound to look at: Cc1cccc(C)c1NC(=O)C(c1ccc(C(F)(F)F)cc1)n1c(=O)c(-c2ccco2)nc2ccccc21 (centres undefined)
Data returned: T

Data request: Another compound to look at: Oc1c(C(c2ccccc2)N2CCCCC2)ccc2ccccc12 (centres undefined)
Data returned: T

Data request: Another compound to look at: O=C(NCc1ccccc1)C(c1ccc(C(F)(F)F)cc1)n1c(=O)c(-c2ccco2)nc2ccccc21 (centres undefined)
Data returned: T

Data request: Another compound to look at: COc1ccc(/C=C\C(=O)CC(O)(c2ccccc2)C(F)(F)F)cc1 (centres undefined)
Data returned: T

Data request: Another compound to look at: O=C(NCc1ccccc1)C(c1cccc2ccccc12)n1c(=O)c(-c2ccco2)nc2ccccc21 (centres undefined)
Data returned: T

Data request: Another compound to look at: COc1ccc(NC(=O)C(c2ccc(C#N)cc2)n2c(=O)c(-c3ccco3)nc3ccccc32)cc1 (centres undefined)
Data returned: T

Data request: Another compound to look at: O=C(Nc1ccc(Cl)cc1)/C(=C/c1cccc(O)c1)c1nc2ccccc2s1
Data returned: T

Data request: Another compound to look at: COc1ccc(NC(=O)C(c2ccccc2)n2c(=O)c(-c3ccco3)nc3ccccc32)cc1 (centres undefined)
Data returned: T

Data request: Another compound to look at: C#CCN(C[C@@H]1[C@@H](OC(=O)NCc2ccc(OC)c(OC)c2)[C@@H](OC(=O)NCc2ccc(OC)c(OC)c2)Cn2c(=O)ccc(=O)n21)S(=O)(=O)c1ccc(C)cc1
Data returned: T

Data request: Another compound to look at: O=C(NC1CCCCC1)C(C1CC1)n1c(=O)c(-c2ccco2)nc2ccccc21 (centres undefined)
Data returned: T

Data request: Another compound to look at: CCOC(=O)c1c(C)oc2c1c(CN1CCN(CCO)CC1)c(O)c1ccccc12
Data returned: T

Data request: Another compound to look at: O=C(NCc1ccccc1)C(c1ccccc1F)n1c(=O)c(-c2ccco2)nc2ccccc21 (centres undefined)
Data returned: T

Data request: Another compound to look at: C=C[C@]1(C)C[C@@H](OC(=O)CSCCN(CC)CC)[C@]2(C)C(C)CC[C@]3(CCC(=O)[C@H]32)[C@@H](C)[C@@H]1O (some centres undefined)
Data returned: T

Data request: Another compound to look at: CCN(CC)CCOCCOC(=O)C1(c2ccccc2)CCCC1
Data returned: T
